These measurements were taken from PubChem BioAssay (NCATS).

System: MCC-13
Experiment: qHTS assay to identify novel small-molecules to repurpose for Merkel cell carcinoma treatment (AID 1296009); further: nearly all actives have a fitted effect of over 60% in size
Details: MCC and control cell lines, CellTiter-Glo viability, 72 h; series mostly up to 46 µM
Results filed as inconclusive are left out. Calls of active or inactive are those of the source. The call rests on the fitted dose curve; in most records, active means well fitted inhibition curve with a large enough effect; inconclusive means small, poorly fitted or top-dose-only effect; inactive means flat fitted curve, though single readings scatter.
Answer with one of the outcomes given here: active, inactive

Previously resolved entries follow.
compound	assigned_label
CCn1nnc2c(N3CCOCC3)nc(-c3ccc(NC(=O)Nc4ccc(C(=O)N5CCN(C)CC5)cc4)cc3)nc21	inactive
Nc1ccc(S(=O)(=O)Nc2ncccn2)cc1	inactive
CC(C)c1cc(-c2n[nH]c(=O)n2-c2ccc3c(ccn3C)c2)c(O)cc1O	active
COC(=O)C[C@](O)(CCCC(C)(C)O)C(=O)O[C@@H]1C(OC)=C[C@]23CCCN2CCc2cc4c(cc2[C@H]13)OCO4	inactive
CCN(CC)CCNC(=O)c1ccc2nc(-c3ccccc3)c(-c3ccc(CN4CCC(n5c(=O)[nH]c6ccccc65)CC4)cc3)nc2c1	active
CN(C)Cc1c(C(=O)NCCOc2ccc(C(=O)NO)cc2)oc2ccccc12	active
COc1cc(C(C)C)c2c(c1)S(=O)(=O)N(COc1cc(=O)n3cccc(OCCN4CCCCC4)c3n1)C2=O	inactive
CC(C)(C)OC(=O)Nc1ccc(-c2cc(C(=O)NCCCCCCC(=O)NO)no2)cc1	active
O=C(O)[C@H](Cc1c[nH]c2ccccc12)N1C(=O)c2ccccc2C1=O	inactive
CC(C)c1noc(N2CCC(COc3ccc(-c4ccc(S(C)(=O)=O)cc4)nc3)CC2)n1	inactive

*Q* So what was the verdict on CCCCN1CCC(CNC(=O)c2c3n(c4ccccc24)CCCO3)CC1 in this test?
*A* inactive

*Q* So what was the verdict on C=CCn1c(=O)c2cnc(Nc3ccc(N4CCN(C)CC4)cc3)nc2n1-c1cccc(C(C)(C)O)n1 in this test?
*A* active

*Q* So what was the verdict on CC(C)c1cc(C(=O)N2Cc3ccc(CN4CCN(C)CC4)cc3C2)c(O)cc1O in this test?
*A* active

*Q* So what was the verdict on CC(C)(C)NC(=O)[C@H]1CN(Cc2cccnc2)CCN1C[C@@H](O)C[C@@H](Cc1ccccc1)C(=O)N[C@H]1c2ccccc2C[C@H]1O in this test?
*A* inactive

*Q* So what was the verdict on COc1cccc2nc(-c3cccs3)nc(NN3C(=O)C=C(C)C3=O)c12 in this test?
*A* active

*Q* So what was the verdict on Nc1ccccc1NC(=O)c1ccc(CNc2nccc(-c3cccnc3)n2)cc1 in this test?
*A* active

*Q* So what was the verdict on CCCn1c(=O)c2[nH]c(-c3cnn(Cc4cccc(C(F)(F)F)c4)c3)nc2n(CC)c1=O in this test?
*A* inactive
